target: Serine/threonine-protein kinase PLK2 (Homo sapiens); conditions: at 10 µM
Description: Millipore: Percentage of residual kinase activity of PLK2 at 10uM relative to control. Control inhibitor: Phosphoric acid* at 0.3uM. Buffer: 8 mM MOPS pH 7.0, 0.2 mM EDTA
Everything with residual activity lower than 90% is Condition not met; everything else, including exactly 90%, is Condition met.

# chemical.structure, category
records = [
    ("CC#CC(=O)Nc1cc2c(Nc3ccc(F)c(Cl)c3)ncnc2cn1", "Condition met"),
    ("Oc1c2ccccc2c2c3c(cccc13)N=N2", "Condition not met"),
]

Enquiry: Would you say O=C1Nc2ccc(Br)cc2/C1=C\c1cc2c([nH]1)CCCC2 shows residual activity at minimum 90%?
Return: Condition met

----------
residual activity listing for selected compounds.
molecular target: Muscle, skeletal receptor tyrosine-protein kinase (Homo sapiens) (UniProt O15146); conditions: at 10 µM
Sequence (O15146 whole entry): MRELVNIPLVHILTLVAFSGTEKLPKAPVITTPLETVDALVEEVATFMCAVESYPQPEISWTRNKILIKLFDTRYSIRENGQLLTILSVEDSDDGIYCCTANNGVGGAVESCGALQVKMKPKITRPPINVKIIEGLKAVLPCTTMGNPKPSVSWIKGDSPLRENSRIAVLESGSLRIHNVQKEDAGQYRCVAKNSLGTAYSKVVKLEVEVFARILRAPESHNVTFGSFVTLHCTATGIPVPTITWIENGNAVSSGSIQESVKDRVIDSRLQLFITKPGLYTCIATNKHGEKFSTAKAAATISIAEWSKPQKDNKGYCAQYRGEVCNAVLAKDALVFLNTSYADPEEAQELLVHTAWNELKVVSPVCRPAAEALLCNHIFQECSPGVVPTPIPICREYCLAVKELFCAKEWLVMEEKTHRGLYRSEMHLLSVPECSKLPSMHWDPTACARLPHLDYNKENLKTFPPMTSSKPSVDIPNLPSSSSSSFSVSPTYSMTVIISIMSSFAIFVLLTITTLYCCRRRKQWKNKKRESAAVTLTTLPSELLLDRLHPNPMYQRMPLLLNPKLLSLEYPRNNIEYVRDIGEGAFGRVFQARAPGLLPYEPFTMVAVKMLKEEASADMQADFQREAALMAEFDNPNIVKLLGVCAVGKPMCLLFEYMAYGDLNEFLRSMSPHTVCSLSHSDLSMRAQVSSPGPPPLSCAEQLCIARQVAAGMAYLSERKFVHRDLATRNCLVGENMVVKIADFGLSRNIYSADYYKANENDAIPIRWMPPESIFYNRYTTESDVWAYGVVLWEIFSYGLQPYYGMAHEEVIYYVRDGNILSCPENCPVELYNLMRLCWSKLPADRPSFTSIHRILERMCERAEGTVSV
Respond numerically; units are % and should not be typed.

Enquiry: // residual activity lookup, key: Oc1c2ccccc2c2c3c(cccc13)N=N2
Return: 24

Enquiry: // residual activity lookup, key: Ic1cccc(CSc2nnc(-c3ccncc3)o2)c1
Return: 59

Enquiry: // residual activity lookup, key: Nc1ccc2ncnc(NCCc3ccc(Oc4ccccc4)cc3)c2c1
Return: 49

Enquiry: // residual activity lookup, key: Cc1nc(-c2ccccc2)c(-c2ccncc2)o1
Return: 94

Enquiry: // residual activity lookup, key: CC(C)n1cnc2/c(=N/c3cccc(Cl)c3)nc(NCCO)[nH]c21
Return: 35

Enquiry: // residual activity lookup, key: COc1cc2ncnc(Nc3ccc(O)c(Br)c3)c2cc1OC
Return: 63

Enquiry: // residual activity lookup, key: Nc1cccc(-c2cc3c(Oc4cccc(O)c4)ncnc3[nH]2)c1
Return: 17

Enquiry: // residual activity lookup, key: NC(=O)c1ccc2[nH]c(-c3ccc(Oc4ccc(Cl)cc4)cc3)nc2c1
Return: 63

Data origin, for the record: ChEMBL document CHEMBL2218924
